# log10 of EC50 values compiled below
tgt: hGPR40 (Homo sapiens)
Sequence (O14842 whole entry): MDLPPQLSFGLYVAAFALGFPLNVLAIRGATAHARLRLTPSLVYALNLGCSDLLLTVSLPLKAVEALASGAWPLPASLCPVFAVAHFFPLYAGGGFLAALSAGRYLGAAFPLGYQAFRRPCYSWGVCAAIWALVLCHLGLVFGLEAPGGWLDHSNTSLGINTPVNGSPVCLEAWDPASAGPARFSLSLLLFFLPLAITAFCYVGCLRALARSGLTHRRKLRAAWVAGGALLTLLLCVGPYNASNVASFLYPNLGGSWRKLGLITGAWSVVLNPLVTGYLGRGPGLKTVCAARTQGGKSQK
methodSummary: FDSS-based intracellular calcium assay
Type: cell-based
Parameters: 3xFLAG; expressed in transfected cells
conditionInfo: intracellular Ca2+ response, cells expressing GPR40
property: log10 of EC50 (log10 of the value in nM)

1. COc1cccc(F)c1N1CCC(Oc2ccc(N3N=C(C(F)(F)F)[C@@H](C)[C@@H]3CC(=O)O)cc2)CC1 : 3.77
2. C[C@@H]1C(C(F)(F)F)=NN(c2ccc(OC3CCN(c4ccccc4)CC3)cc2)[C@H]1CC(=O)O : 3.29
3. COc1cc(F)c(F)c(N2CCC(Oc3ccc(N4N=C(C(F)(F)F)[C@@H](C)[C@@H]4CC(=O)O)cc3)C(C)C2)c1 (single isomer, unassigned) [Example 8 (Isomer 1)] : 2.90
4. CC(C)c1ccc(F)c(N2CCC(Oc3ccc(N4N=C(C(F)(F)F)[C@@H](C)[C@@H]4CC(=O)O)cc3)CC2)c1 : 2.78
5. CCOc1ccc(F)c(N2CCC(Oc3ccc(N4N=C(C(F)(F)F)[C@@H](C)[C@@H]4CC(=O)O)cc3)C(CC(C)C)C2)c1 (single isomer, unassigned) [Example 27 (Isomer 2)] : 1.53
6. Cc1cccc(F)c1N1CCC(Oc2ccc(N3N=C(C(F)(F)F)[C@@H](C)[C@@H]3CC(=O)O)cc2)CC1 : 2.90
7. C[C@@H]1C(C(F)(F)F)=NN(c2ccc(OC3CCN(c4ccc(Cl)cc4)CC3)cc2)[C@H]1CC(=O)O : 3.80
8. CCOc1ccc(F)c(N2CC[C@@H](Oc3ccc(N4N=C(C(F)(F)F)[C@@H](C)[C@@H]4CC(=O)O)cc3)[C@H](C)C2)c1 : 2.19
9. COc1cc(N2CC[C@@H](Oc3ccc(N4N=C(C(F)(F)F)[C@@H](C)[C@@H]4CC(=O)O)cc3)[C@H](C)C2)c(Cl)cn1 (single isomer, unassigned) [Example 81, Isomer 2 (neutral form)] : 1.85
10. C[C@@H]1C(C(F)(F)F)=NN(c2ccc(OC3CCN(c4ccc(F)cc4Cl)CC3)cc2)[C@H]1CC(=O)O : 2.58
11. COc1ccc(F)c(N2CCC(Oc3ccc(N4N=C(C(F)(F)F)[C@@H](CC(C)C)[C@@H]4CC(=O)O)cc3)CC2)c1 (single isomer, unassigned) [Example 89, Isomer 1] : 3.90
12. C[C@@H]1C(C(F)(F)F)=NN(c2ccc(OC3CCN(c4cc(Cl)ccc4Cl)CC3)cc2)[C@H]1CC(=O)O : 2.40
